# System: Escherichia coli
# EXPERIMENT_DESCRIPTION: Antibacterial activity against tolC knockout Escherichia coli incubated for 24 hrs in presence of PMBN by microbroth dilution method
# Type: functional
Give measured MIC for each item. Keep answers brief.
Please respond with the number in µM and leave the unit unwritten.

Determine from records and report MIC for C#CCCCCOCCOCCOCCOc1ccc(Br)c(-c2cc3cnc(N)nc3nc2N)c1Br 1.56

Determine from records and report MIC for CC(C)[C@H](NC(=O)C[C@H](NC(=O)CCCCCCCCCCn1cc(CCCCOc2ccc(Br)c(-c3cc4cnc(N)nc4nc3N)c2Br)nn1)c1ccccc1)C(=O)[C@@H]1C(=O)NC(=O)[C@H]1C 0.78

Determine from records and report MIC for CC(C)[C@H](NC(=O)C[C@H](NC(=O)CCCCCCCCCCn1cc(CCCCOCCOCCOCCOc2ccc(Br)c(-c3cc4cnc(N)nc4nc3N)c2Br)nn1)c1ccccc1)C(=O)[C@@H]1C(=O)NC(=O)[C@H]1C 0.78

Determine from records and report MIC for CC(C)[C@H](NC(=O)C[C@H](NC(=O)CCCCCCCCCCN=[N+]=[N-])c1ccccc1)C(=O)[C@@H]1C(=O)NC(=O)[C@H]1C 0.2

Determine from records and report MIC for CC(C)[C@H](NC(=O)C[C@H](NC(=O)CCCCCCCCCCn1cc(CCCCOCCOCCOCCOCCOCCOCCOCCOCCOCCOCCOCCOCCOc2ccc(Br)c(-c3cc4cnc(N)nc4nc3N)c2Br)nn1)c1ccccc1)C(=O)[C@@H]1C(=O)NC(=O)[C@H]1C 1.56

Determine from records and report MIC for CC(C)[C@H](NC(=O)C[C@H](NC(=O)CCCCCCCCCCn1cc(CCCCOCCOCCOCCOCCOCCOCCOCCOCCOCCOc2ccc(Br)c(-c3cc4cnc(N)nc4nc3N)c2Br)nn1)c1ccccc1)C(=O)[C@@H]1C(=O)NC(=O)[C@H]1C 0.78

Determine from records and report MIC for C/C=C/C=C/C(=O)N[C@@H](CC(=O)N[C@H](C(=O)[C@@H]1C(=O)NC(=O)[C@H]1C)C(C)C)c1ccccc1 0.1

Determine from records and report MIC for CC(C)[C@H](NC(=O)C[C@H](NC(=O)CCCCCCCCCCn1cc(CCCCOCCOCCOCCOCCOCCOCCOc2ccc(Br)c(-c3cc4cnc(N)nc4nc3N)c2Br)nn1)c1ccccc1)C(=O)[C@@H]1C(=O)NC(=O)[C@H]1C 0.39

Determine from records and report MIC for CC(C)[C@H](NC(=O)C[C@H](NC(=O)CCCCCCCCCCn1cc(CCCCOCCOCCOCCOCCOCCOCCOc2cc(Br)c(-c3cc4cnc(N)nc4nc3N)c(Br)c2)nn1)c1ccccc1)C(=O)[C@@H]1C(=O)NC(=O)[C@H]1C 0.78

Determine from records and report MIC for C#CCCCCOc1ccc(Br)c(-c2cc3cnc(N)nc3nc2N)c1Br 0.78

Determine from records and report MIC for C#CCCCCOCCOCCOCCOCCOCCOCCOCCOCCOCCOCCOCCOCCOCCOCCOCCOc1ccc(Br)c(-c2cc3cnc(N)nc3nc2N)c1Br 12.5

---

# Tested on: Escherichia coli
# EXPERIMENT_DESCRIPTION: Displacement of 11-(4-(22-(2,4-dibromo-3-(2,7-diaminopyrido[2,3-d]pyrimidin-6-yl)phenoxy)-5,8,11,14,17,20-hexaoxadocos-1-yl)-1H-1,2,3-triazol-1-yl)-N-((1S)-3-(((2S)-3-methyl-1-((3R,4S)-4-methyl-2,5-dioxopyrrolidin-3-yl)-1-oxobutan-2-yl)amino)-3-oxo-1-phenylpropyl)undecanamide from Escherichia coli ACC expressed in Escherichia coli BL21(DE3) pLysS at 50 uM preincubated for 1 hr in presence of Moiramide-B followed by compound addition by LC-MS/MS method
Calls of active or inactive are those of the source. The rule behind the calls is not given here.

# STRUCTURE_SMILES, Activity
rows = [
    ("CC(C)[C@H](NC(=O)C[C@H](NC(=O)CCCCCCCCCCn1cc(CCCCOCCOCCOCCOCCOCCOCCOCCOCCOCCOCCOCCOCCOCCOCCOCCOc2ccc(Br)c(-c3cc4cnc(N)nc4nc3N)c2Br)nn1)c1ccccc1)C(=O)[C@@H]1C(=O)NC(=O)[C@H]1C", "Active"),
    ("CC(C)[C@H](NC(=O)C[C@H](NC(=O)CCCCCCCCCCn1cc(CCCCOc2ccc(Br)c(-c3cc4cnc(N)nc4nc3N)c2Br)nn1)c1ccccc1)C(=O)[C@@H]1C(=O)NC(=O)[C@H]1C", "Active"),
]

---

# EXPERIMENT_DESCRIPTION: Inhibition of Escherichia coli ACC expressed in Escherichia coli BL21(DE3) pLysS incubated for 45 mins in presence of ATP and acetyl coA by fluorescence polarization assay
PARAMETER: IC50 (µM)
Please respond with the number in µM and leave the unit unwritten.

Determine from records and report IC50 for C#CCCCCOCCOCCOCCOCCOCCOCCOCCOCCOCCOCCOCCOCCOc1ccc(Br)c(-c2cc3cnc(N)nc3nc2N)c1Br 0.082

Determine from records and report IC50 for C/C=C/C=C/C(=O)N[C@@H](CC(=O)N[C@H](C(=O)[C@@H]1C(=O)NC(=O)[C@H]1C)C(C)C)c1ccccc1 0.0045

Determine from records and report IC50 for C#CCCCCOCCOCCOCCOCCOCCOCCOCCOCCOCCOc1ccc(Br)c(-c2cc3cnc(N)nc3nc2N)c1Br 0.098

Determine from records and report IC50 for CC(C)[C@H](NC(=O)C[C@H](NC(=O)CCCCCCCCCCn1cc(CCCCOc2ccc(Br)c(-c3cc4cnc(N)nc4nc3N)c2Br)nn1)c1ccccc1)C(=O)[C@@H]1C(=O)NC(=O)[C@H]1C 0.00181

Determine from records and report IC50 for CC(C)[C@H](NC(=O)C[C@H](NC(=O)CCCCCCCCCCn1cc(CCCCOCCOCCOCCOCCOCCOCCOc2cc(Br)c(-c3cc4cnc(N)nc4nc3N)c(Br)c2)nn1)c1ccccc1)C(=O)[C@@H]1C(=O)NC(=O)[C@H]1C 0.00353

Determine from records and report IC50 for C#CCCCCOCCOCCOCCOCCOCCOCCOc1cc(Br)c(-c2cc3cnc(N)nc3nc2N)c(Br)c1 0.849

Determine from records and report IC50 for C#CCCCCOCCOCCOCCOCCOCCOCCOCCOCCOCCOCCOCCOCCOCCOCCOCCOCCOCCOCCOc1ccc(Br)c(-c2cc3cnc(N)nc3nc2N)c1Br 0.126

---

Give measured Ki for each item. Keep answers brief.
# EXPERIMENT_DESCRIPTION: Inhibition of Escherichia coli ACC expressed in Escherichia coli BL21(DE3) pLysS incubated for 45 mins in presence of ATP and acetyl coA by fluorescence polarization assay
Please respond with the number in nM and leave the unit unwritten.

Determine from records and report Ki for CC(C)[C@H](NC(=O)C[C@H](NC(=O)CCCCCCCCCCn1cc(CCCCOCCOCCOCCOCCOCCOCCOc2ccc(Br)c(-c3cc4cnc(N)nc4nc3N)c2Br)nn1)c1ccccc1)C(=O)[C@@H]1C(=O)NC(=O)[C@H]1C 0.25

Determine from records and report Ki for CC(C)[C@H](NC(=O)C[C@H](NC(=O)CCCCCCCCCCn1cc(CCCCOCCOCCOCCOc2ccc(Br)c(-c3cc4cnc(N)nc4nc3N)c2Br)nn1)c1ccccc1)C(=O)[C@@H]1C(=O)NC(=O)[C@H]1C 0.26

Determine from records and report Ki for CC(C)[C@H](NC(=O)C[C@H](NC(=O)CCCCCCCCCCn1cc(CCCCOCCOCCOCCOCCOCCOCCOCCOCCOCCOCCOCCOCCOc2ccc(Br)c(-c3cc4cnc(N)nc4nc3N)c2Br)nn1)c1ccccc1)C(=O)[C@@H]1C(=O)NC(=O)[C@H]1C 0.18

Determine from records and report Ki for CC(C)[C@H](NC(=O)C[C@H](NC(=O)CCCCCCCCCCn1cc(CCCCOCCOCCOCCOCCOCCOCCOCCOCCOCCOCCOCCOCCOCCOCCOCCOc2ccc(Br)c(-c3cc4cnc(N)nc4nc3N)c2Br)nn1)c1ccccc1)C(=O)[C@@H]1C(=O)NC(=O)[C@H]1C 0.33

Determine from records and report Ki for CC(C)[C@H](NC(=O)C[C@H](NC(=O)CCCCCCCCCCn1cc(CCCCOCCOCCOCCOCCOCCOCCOCCOCCOCCOc2ccc(Br)c(-c3cc4cnc(N)nc4nc3N)c2Br)nn1)c1ccccc1)C(=O)[C@@H]1C(=O)NC(=O)[C@H]1C 0.31

---

# Test system: Escherichia coli
# EXPERIMENT_DESCRIPTION: Antibacterial activity against acrAB knockout Escherichia coli MG1655 incubated for 24 hrs by microbroth dilution method
# Format: functional
PARAMETER: MIC

Return reported MIC for target or system Escherichia coli, item CC(C)[C@H](NC(=O)C[C@H](NC(=O)CCCCCCCCCCN=[N+]=[N-])c1ccccc1)C(=O)[C@@H]1C(=O)NC(=O)[C@H]1C . > 25 µM

Return reported MIC for target or system Escherichia coli, item C#CCCCCOc1ccc(Br)c(-c2cc3cnc(N)nc3nc2N)c1Br . > 25 µM

Return reported MIC for target or system Escherichia coli, item C/C=C/C=C/C(=O)N[C@@H](CC(=O)N[C@H](C(=O)[C@@H]1C(=O)NC(=O)[C@H]1C)C(C)C)c1ccccc1 . 25 µM

Return reported MIC for target or system Escherichia coli, item CC(C)[C@H](NC(=O)C[C@H](NC(=O)CCCCCCCCCCn1cc(CCCCOCCOCCOCCOCCOCCOCCOc2ccc(Br)c(-c3cc4cnc(N)nc4nc3N)c2Br)nn1)c1ccccc1)C(=O)[C@@H]1C(=O)NC(=O)[C@H]1C . > 25 µM
